// reported inhibition at 1 µM per item
SYSTEM: UniProt P42680
Sequence (P42680 1-631): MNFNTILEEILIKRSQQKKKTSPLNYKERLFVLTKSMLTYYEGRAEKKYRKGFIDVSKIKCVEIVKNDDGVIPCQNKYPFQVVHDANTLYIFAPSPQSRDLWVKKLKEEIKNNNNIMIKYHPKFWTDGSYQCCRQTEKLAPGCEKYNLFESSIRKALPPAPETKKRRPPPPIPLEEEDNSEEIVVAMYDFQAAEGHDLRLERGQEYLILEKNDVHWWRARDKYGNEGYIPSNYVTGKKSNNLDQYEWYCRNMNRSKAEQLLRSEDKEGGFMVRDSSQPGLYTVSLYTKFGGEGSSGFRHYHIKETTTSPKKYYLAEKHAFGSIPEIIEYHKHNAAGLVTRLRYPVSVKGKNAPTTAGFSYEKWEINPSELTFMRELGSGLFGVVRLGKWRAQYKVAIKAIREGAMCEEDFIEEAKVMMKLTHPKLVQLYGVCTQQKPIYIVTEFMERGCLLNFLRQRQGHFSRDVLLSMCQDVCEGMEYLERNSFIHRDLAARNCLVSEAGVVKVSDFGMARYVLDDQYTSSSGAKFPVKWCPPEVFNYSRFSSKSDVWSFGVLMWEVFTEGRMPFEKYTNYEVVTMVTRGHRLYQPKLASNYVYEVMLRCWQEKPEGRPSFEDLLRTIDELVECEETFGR
TEST DETAILS: Tyrosine kinase inhibition assay
Type: biochemical
STATED CONDITIONS: single concentration 1.0 μM, read-out: percent inhibition
Numbers only here, please. The scale is %.

Here is how some compounds turned out for inhibition at 1 µM.
COMPOUND | VAL
COc1cc2nccc(Oc3ccc(NC(=O)C4(C(=O)Nc5ccc(F)cc5)CC4)cc3)c2cc1OC [Cabozantinib, reference compound] | 5
COc1cc2nccc(Oc3ccc(NC(=O)C4(C(=O)Nc5ccc(F)cc5)CC4)cc3F)c2cc1Oc1ccc(N)cc1F | 37

Recorded result, `COc1cc2nccc(Oc3ccc(NC(=O)C4(NC(=O)c5ccc(F)cc5)CC4)cc3F)c2cc1Oc1c(F)cc(N)cc1F` , inhibition at 1 µM: 77

Recorded result, `COc1cc2nccc(Oc3ccc(NC(=O)C4(NC(=O)c5ccc(F)cc5)CC4)cc3F)c2cc1Oc1ccc(N)cc1F` , inhibition at 1 µM: 80

Recorded result, `COc1cc2nccc(Oc3ccc(NC(=O)C4(NC(=O)c5ccc(F)cc5)CC4)cc3F)c2cc1OC` , inhibition at 1 µM: 29

---

// reported inhibition at 1 µM per item
SYSTEM: UniProt:P42679
Sequence (P42679 whole entry): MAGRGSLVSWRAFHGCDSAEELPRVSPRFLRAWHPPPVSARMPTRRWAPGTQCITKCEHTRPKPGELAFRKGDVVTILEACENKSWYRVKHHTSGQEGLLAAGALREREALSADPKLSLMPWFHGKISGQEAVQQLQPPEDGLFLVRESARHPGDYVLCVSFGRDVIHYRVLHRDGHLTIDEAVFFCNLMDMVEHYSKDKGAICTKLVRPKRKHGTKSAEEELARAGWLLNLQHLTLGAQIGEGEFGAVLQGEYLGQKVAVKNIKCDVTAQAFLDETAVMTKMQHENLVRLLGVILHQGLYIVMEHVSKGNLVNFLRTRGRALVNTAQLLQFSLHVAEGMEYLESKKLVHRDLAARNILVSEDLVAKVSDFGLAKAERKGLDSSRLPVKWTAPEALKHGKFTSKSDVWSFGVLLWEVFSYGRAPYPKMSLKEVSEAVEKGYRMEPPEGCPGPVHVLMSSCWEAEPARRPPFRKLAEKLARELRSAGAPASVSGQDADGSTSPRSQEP
TEST DETAILS: Tyrosine kinase inhibition assay
Assay type: biochemical
STATED CONDITIONS: single concentration 1.0 μM, read-out: percent inhibition
Numbers only here, please. The scale is %.

Here is how some compounds turned out for inhibition at 1 µM.
COMPOUND | SYSTEM | METRIC | VAL
COc1cc2nccc(Oc3ccc(NC(=O)C4(NC(=O)c5ccc(F)cc5)CC4)cc3F)c2cc1OC [Cbo-02] | UniProt:P42679 | inhibition at 1 µM | 7
COc1cc2nccc(Oc3ccc(NC(=O)C4(NC(=O)c5ccc(F)cc5)CC4)cc3F)c2cc1Oc1c(F)cc(N)cc1F [Cbo-14] | UniProt:P42679 | inhibition at 1 µM | 8
COc1cc2nccc(Oc3ccc(NC(=O)C4(C(=O)Nc5ccc(F)cc5)CC4)cc3)c2cc1OC [Cabozantinib, reference compound] | UniProt:P42679 | inhibition at 1 µM | 10

Recorded result, COc1cc2nccc(Oc3ccc(NC(=O)C4(NC(=O)c5ccc(F)cc5)CC4)cc3F)c2cc1Oc1ccc(N)cc1F [Cbo-10] , inhibition at 1 µM: 5

Recorded result, COc1cc2nccc(Oc3ccc(NC(=O)C4(C(=O)Nc5ccc(F)cc5)CC4)cc3F)c2cc1Oc1ccc(N)cc1F [Cbo-23] , inhibition at 1 µM: 8

Where do these numbers come from? They come from patent US20250120967A1.
